target: human NK1 receptor (Homo sapiens); assay: NK1 receptor binding, [3H]substance P displacement, CHO cell membranes; conditions: first value of the cell NK1/NK3; read-out: pKi NK1 (converted)
Sequence (P25103 whole entry): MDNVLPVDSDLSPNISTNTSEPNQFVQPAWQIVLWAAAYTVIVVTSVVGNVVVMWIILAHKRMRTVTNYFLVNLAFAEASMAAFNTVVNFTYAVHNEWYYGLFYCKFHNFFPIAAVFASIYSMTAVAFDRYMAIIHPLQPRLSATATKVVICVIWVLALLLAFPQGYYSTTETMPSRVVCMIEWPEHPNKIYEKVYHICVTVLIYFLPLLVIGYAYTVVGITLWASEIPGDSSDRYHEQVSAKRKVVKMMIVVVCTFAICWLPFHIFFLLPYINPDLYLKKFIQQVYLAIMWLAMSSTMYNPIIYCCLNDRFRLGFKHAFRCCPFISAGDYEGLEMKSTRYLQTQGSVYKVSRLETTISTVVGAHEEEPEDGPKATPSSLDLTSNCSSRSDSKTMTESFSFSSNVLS
READOUT KIND: Ki (nM)
Answers are plain numbers, in nM.

// below: answered compounds
What reported Ki corresponds to CN(C(=O)C(C)(C)c1cc(C(F)(F)F)cc(C(F)(F)F)c1)c1cnc(N2C[C@H](O)C[C@H]2CO)cc1-c1ccc(F)cc1F [Example 220] on human NK1 receptor (Homo sapiens)? 1.51

What reported Ki corresponds to CN(C(=O)C(C)(C)c1cc(C(F)(F)F)cc(C(F)(F)F)c1)c1cnc(N2CCC[C@H]2CO)cc1-c1ccccc1F [Example 282] on human NK1 receptor (Homo sapiens)? 3.09

What reported Ki corresponds to CN(C(=O)C(C)(C)c1cc(C(F)(F)F)cc(C(F)(F)F)c1)c1cnc(N2C[C@H](O)C[C@H]2CO)cc1-c1ccccc1CO [Example 225] on human NK1 receptor (Homo sapiens)? 1.66

What reported Ki corresponds to CN(C(=O)C(C)(C)c1cc(C(F)(F)F)cc(C(F)(F)F)c1)c1cnc(N2C[C@@H](O)C[C@H]2CO)cc1-c1ccc(F)cc1Cl [Example 235] on human NK1 receptor (Homo sapiens)? 1.66

What reported Ki corresponds to Cc1ccccc1-c1cc(N2C[C@@H](O)C[C@@H]2CO)ncc1N(C)C(=O)C(C)(C)c1cc(C(F)(F)F)cc(C(F)(F)F)c1 [Example 260] on human NK1 receptor (Homo sapiens)? 1.41

Quick one: give me Ki for each item below, same order please.
1. CN(C(=O)C(C)(C)c1cc(C(F)(F)F)cc(C(F)(F)F)c1)c1cnc(N2C[C@H](O)C[C@H]2CO)cc1-c1ccc(F)c(F)c1 [Example 209]
2. Cc1ccccc1-c1cc(N2CCC[C@H]2CO)ncc1N(C)C(=O)C(C)(C)c1cc(C(F)(F)F)cc(C(F)(F)F)c1 [Example 279]
3. Cc1cc(F)ccc1-c1cc(N2C[C@@H](F)C[C@H]2CO)ncc1N(C)C(=O)C(C)(C)c1cc(C(F)(F)F)cc(C(F)(F)F)c1 [Example 298]
4. CN(C(=O)C(C)(C)c1cc(C(F)(F)F)cc(C(F)(F)F)c1)c1cnc(N2CCC[C@H]2CO)cc1-c1ccc(Cl)cc1Cl [Example 283]
5. CN(C(=O)C(C)(C)c1cc(C(F)(F)F)cc(C(F)(F)F)c1)c1cnc(N2C[C@H](O)C[C@H]2CO)cc1-c1cccnc1Cl [Example 232]
6. Cc1ncccc1-c1cc(N2CC[C@H](O)[C@H]2CO)ncc1N(C)C(=O)C(C)(C)c1cc(C(F)(F)F)cc(C(F)(F)F)c1 [Example 278]
7. CN(C(=O)C(C)(C)c1cc(C(F)(F)F)cc(C(F)(F)F)c1)c1cnc(N2C[C@@H](O)C[C@H]2CO)cc1-c1ccccc1 [Example 247]

1. 1.35
2. 2.82
3. 1.55
4. 2.82
5. 0.575
6. 0.813
7. 1.51

Quick one: give me Ki for each item below, same order please.
1. Cc1ccccc1-c1cc(N2CC(F)(F)C[C@H]2CO)ncc1N(C)C(=O)C(C)(C)c1cc(C(F)(F)F)cc(C(F)(F)F)c1 [Example 299]
2. CN(C(=O)C(C)(C)c1cc(C(F)(F)F)cc(C(F)(F)F)c1)c1cnc(N2CCC[C@H]2CO)cc1-c1ccc(Cl)c(Cl)c1 [Example 286]
3. CN(C(=O)C(C)(C)c1cc(C(F)(F)F)cc(C(F)(F)F)c1)c1cnc(N2CC[C@H](O)[C@H]2CO)cc1-c1ccc(F)cc1 [Example 266]

1: 2.57; 2: 1.35; 3: 1.2

Quick one: give me Ki for each item below, same order please.
1. CN(C(=O)C(C)(C)c1cc(C(F)(F)F)cc(C(F)(F)F)c1)c1cnc(N2C[C@H](O)C[C@H]2CO)cc1-c1ccccc1C(N)=O [Example 219]
2. CN(C(=O)C(C)(C)c1cc(C(F)(F)F)cc(C(F)(F)F)c1)c1cnc(N2C[C@@H](O)C[C@H]2CO)cc1-c1ccc(F)cc1CO [Example 240]
3. Cc1cc(-c2cc(N3C[C@H](O)C[C@H]3CO)ncc2N(C)C(=O)C(C)(C)c2cc(C(F)(F)F)cc(C(F)(F)F)c2)ccc1F [Example 211]
4. Cc1c(F)cccc1-c1cc(N2CC[C@H](O)[C@H]2CO)ncc1N(C)C(=O)C(C)(C)c1cc(C(F)(F)F)cc(C(F)(F)F)c1 [Example 275]

1: 1.45; 2: 0.794; 3: 1.66; 4: 1.48

Quick one: give me Ki for each item below, same order please.
1. CC(=O)NC[C@@H]1CCCN1c1cc(-c2ccc(F)cc2C)c(N(C)C(=O)C(C)(C)c2cc(C(F)(F)F)cc(C(F)(F)F)c2)cn1 [Example 302]
2. Cc1cc(F)ccc1-c1cc(N2CCC[C@H]2COC(=O)N(C)C)ncc1N(C)C(=O)C(C)(C)c1cc(C(F)(F)F)cc(C(F)(F)F)c1 [Example 303]

1. 2.51
2. 1.32

Quick one: give me Ki for each item below, same order please.
1. CN(C(=O)C(C)(C)c1cc(C(F)(F)F)cc(C(F)(F)F)c1)c1cnc(N2CC[C@H](O)[C@H]2CO)cc1-c1cccc(Cl)c1Cl [Example 271]
2. CN(C(=O)C(C)(C)c1cc(C(F)(F)F)cc(C(F)(F)F)c1)c1cnc(N2C[C@H](O)C[C@H]2CO)cc1-c1ccccc1S(C)(=O)=O [Example 218]
3. CN(C(=O)C(C)(C)c1cc(C(F)(F)F)cc(C(F)(F)F)c1)c1cnc(N2C[C@H](O)C[C@H]2CO)cc1-c1ccc(F)cc1CO [Example 223]

[3.02, 2.63, 0.708]
